Listing: GI50 of selected compounds
tested on: MCF-7; assay: MTS GI50, Myc-dependent panel; type: cell-based; settings: Homo sapiens, MCF7; MCF-7, 72 h; read-out: GI50
recorded.metric: GI50

smiles.repr: CCNCCCn1c2c(c3cc(OC)c(OC)cc3c1=O)C(=O)c1cc3c(nc1-2)OCO3
result: > 2000 nM
--
smiles.repr: COc1cc2c3c(n(CCCn4ccnc4)c(=O)c2cc1OC)-c1cc2c(cc1C3=O)OCO2
result: > 2000 nM
--
smiles.repr: COc1cc2c3c(n(CCCNC(C)C)c(=O)c2cc1OC)-c1nc2c(cc1C3=O)OCO2
result: > 2000 nM
--
smiles.repr: CC[C@@]1(O)C(=O)OCc2c1cc1n(c2=O)Cc2cc3ccccc3nc2-1
result: 200 nM
--
smiles.repr: COc1cc2c3c(n(CCCn4ccnc4)c(=O)c2cc1OC)-c1nc2c(cc1C3=O)OCO2
result: > 2000 nM
--
smiles.repr: COc1cc2c3c(n(CCCN4CCOCC4)c(=O)c2cc1OC)-c1nc2c(cc1C3=O)OCO2
result: > 2000 nM
--
smiles.repr: COc1cc2c3c(n(CCCNCCO)c(=O)c2cc1OC)-c1nc2c(cc1C3=O)OCO2
result: 1390 nM
--
smiles.repr: COc1cc2c3c(n(CCCN4CCOCC4)c(=O)c2cc1OC)-c1cc2c(cc1C3=O)OCO2
result: > 2000 nM

---

test: Brain penetration and plasma/brain pharmacokinetics in combination with Temodar or Lynparza; settings: plasma, 10 mg/kg IV + Lynparza 100 mg/kg PO
Listing: AUClast/D of selected compounds
recorded.metric: AUClast/D (h·ng/mL per mg/kg)

smiles.repr: COc1cc2c3c(n(CCCN4CCOCC4)c(=O)c2cc1OC)-c1cc2c(cc1C3=O)OCO2
value.unit: h·ng/mL per mg/kg
number: 664
//
smiles.repr: COc1cc2c3c(n(CCCNCCO)c(=O)c2cc1OC)-c1cc2c(cc1C3=O)OCO2
value.unit: h·ng/mL per mg/kg
number: 149

---

assay: in vivo; conditions: male, CD1, mouse, iv, 20 mg/kg
recorded.metric: Vd

smiles.repr: COc1cc2c3c(n(CCCNCCO)c(=O)c2cc1OC)-c1nc2c(cc1C3=O)OCO2
result: 29 L/kg

smiles.repr: CCNCCCn1c2c(c3cc(OC)c(OC)cc3c1=O)C(=O)c1cc3c(nc1-2)OCO3
result: 58.4 L/kg

---

Listing: Recovery (%)AP-BL of selected compounds
system: Caco-2 cells; experiment: Caco-2 permeability; assay type: in vitro ADME; settings: Caco-2

compound: CCNCCCn1c2c(c3cc(OC)c(OC)cc3c1=O)C(=O)c1cc3c(nc1-2)OCO3 [G104]
Recovery (%)AP-BL: 54.60
--
compound: COc1cc2nc(N3CCN(C(=O)c4ccco4)CC3)nc(N)c2cc1OC [Prazosin]
Recovery (%)AP-BL: 79.64
--
compound: C[C@H]1O[C@@H](O[C@H]2[C@@H](O)C[C@H](O[C@H]3[C@@H](O)C[C@H](O[C@H]4CC[C@@]5(C)[C@H](CC[C@@H]6[C@@H]5C[C@@H](O)[C@]5(C)[C@@H](C7=CC(=O)OC7)CC[C@]65O)C4)O[C@@H]3C)O[C@@H]2C)C[C@H](O)[C@@H]1O [Digoxin]
Recovery (%)AP-BL: 88.64
--
compound: COc1cc2c3c(n(CCCNCCO)c(=O)c2cc1OC)-c1nc2c(cc1C3=O)OCO2 [G105]
Recovery (%)AP-BL: 75.07
--
compound: COc1cc2c3c(n(CCCNC(C)C)c(=O)c2cc1OC)-c1nc2c(cc1C3=O)OCO2 [G103]
Recovery (%)AP-BL: 36.17
--
compound: CC(C)NCC(O)COc1cccc2ccccc12 (stereo not drawn) [Propranolol]
Recovery (%)AP-BL: 80.74
